Target: T1, IL-1beta (UniProt P01584 117-269)
T1 construct: also called IL-1β
Test: Biacore
endpoint name: fold difference in affinity vs parental (fold)
Answers are plain numbers, in fold.

XPA23 Fab, heavy chain S54Y (Fab, V domains shown) VH: EVQLLESGGGLVQPGGSLRLSCAASGFTFSKYFMFWVRQAPGKGLEWVSVISPYGGMTRYADSVKGRFTISRDNSKNTLYLQMNSLRAEDTAVYYCARVGYGGNSDYWGQGTLVTVSS VL: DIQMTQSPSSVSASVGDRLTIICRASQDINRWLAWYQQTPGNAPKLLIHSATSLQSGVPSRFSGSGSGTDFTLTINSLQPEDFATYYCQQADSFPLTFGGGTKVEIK	0.99

Dear colleague, could you please provide fold difference in affinity vs parental for the binders listed below?
1. XPA23 Fab, heavy chain N104S (Fab, V domains shown) VH: EVQLLESGGGLVQPGGSLRLSCAASGFTFSKYFMFWVRQAPGKGLEWVSVISPSGGMTRYADSVKGRFTISRDNSKNTLYLQMNSLRAEDTAVYYCARVGYGGSSDYWGQGTLVTVSS VL: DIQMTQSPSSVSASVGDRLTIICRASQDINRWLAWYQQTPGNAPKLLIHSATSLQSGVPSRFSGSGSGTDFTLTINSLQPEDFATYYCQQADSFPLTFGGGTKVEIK
2. XPA23 Fab, heavy chain S54K (Fab, V domains shown) VH: EVQLLESGGGLVQPGGSLRLSCAASGFTFSKYFMFWVRQAPGKGLEWVSVISPKGGMTRYADSVKGRFTISRDNSKNTLYLQMNSLRAEDTAVYYCARVGYGGNSDYWGQGTLVTVSS VL: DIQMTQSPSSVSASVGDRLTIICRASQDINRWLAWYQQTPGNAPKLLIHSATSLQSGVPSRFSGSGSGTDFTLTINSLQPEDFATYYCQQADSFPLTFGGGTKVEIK

OUTPUT:
1. 1.02
2. 1.53
